Values compiled from the supplement of paper PMC7125110.

B1: glmS ribozyme (parent)
chain: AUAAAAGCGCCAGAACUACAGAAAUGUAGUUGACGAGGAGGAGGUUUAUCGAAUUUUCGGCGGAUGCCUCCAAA

Variants of: B1
test: self-cleavage kobs at 160 uM GlcN6P; higher = faster cleavage; RNA array
stated conditions: with glucosamine-6-phosphate
This sample holds only a part of the variants without activity.
test readout: self-cleavage kobs at 160 uM GlcN6P

{"sequence record": "AUAAAAGCGCGAGAACUACAGAAAUGUAGUUGACGCGGAGCAGGUUUAUCGAAUUUUCGACGGAUGCCUCCAAA [C11G A36C G41C G60A]", "value reported": "< 1e-05 s⁻¹"}
{"sequence record": "AUAAAAGCGCCAGAACUACAGAAAUGUAGUUGACGUGGAGGAGGUUUAUCAAAUUUUCGGCGGAUGCCUCCAAA [A36U G51A]", "value reported": "< 1e-05 s⁻¹"}
{"sequence record": "AUAAAAGCGCCAGAACUACAGAAAUGUAGUUGACGAGGAGGAGGUUUAUCGAAUUAUCGGCGGAUGACUCCAAA [U56A C67A]", "value reported": "0.000294 s⁻¹"}
{"sequence record": "AUAAAUACGCCAGAACUACAGAAAUGUAGUUGACGAGGAGGAGGUUUAUCGAAUUUUCGGCGGAUGCCUCCAAA [A6U G7A]", "value reported": "< 1e-05 s⁻¹"}
{"sequence record": "AUAAAAUCACCAGAAUUACAGAAAUGUAAUUGACGAGGAGGAGGUUUAUCGAUUUUUCAGCGGAUACCGCCAAA [G7U G9A C16U G29A A53U G59A G66A U69G]", "value reported": "< 1e-05 s⁻¹"}
{"sequence record": "AUAAAUGCGCCAGAACUACAGAAAUGUAGUUAACGAGGAGGAGGUUUAUCGAAUUUUCGGCGGAUGCCUCCAAA [A6U G32A]", "value reported": "< 1e-05 s⁻¹"}
{"sequence record": "AUAAAUGCGCCAGAACUACAGAAAUGUAGUUCACGAGGAGGAGGUUUAUCGAAUUUUCGGCGGAUGCCUCCAAA [A6U G32C]", "value reported": "< 1e-05 s⁻¹"}
{"sequence record": "AUAAAAGCGCCAGAACUACAGAAAUGUAGUUGACCACGAGGAGGUCUAUCGAAUUUUCGGCGUAUGCCUCCAAA [G35C G37C U46C G63U]", "value reported": "< 1e-05 s⁻¹"}
{"sequence record": "AUAAAAGCGCCAGAACUACAGAAAUGUAGUUGACGAGGAGGAGGUUUAUCGAAUAUUCGGCGGAUGCCUGCAAA [U55A C70G]", "value reported": "0.000102 s⁻¹"}
{"sequence record": "AUAAAAGCGCCAGAACUACAGAAAUGUAGUUGACGAGGAGGAGGUUUAUCGAAUUUUAGGCGGAUGCCCCCAAA [C58A U69C]", "value reported": "3.58e-05 s⁻¹"}
{"sequence record": "AUAAAAGCGCCAGAACUACAGAAAUGUAGUUGACGAGGAGGAGGUUUAUCGAAUUUUCGGCGAAUGCCGCCAAA [G63A U69G]", "value reported": "8.37e-05 s⁻¹"}
{"sequence record": "AUAAAAGCGCCAGAUCUACAGAAAUGUAGUUGACGAGGAGGAGGGUUAUCGAAUUUUCGGCGGAUGCCUCCAAA [A15U U45G]", "value reported": "5.29e-05 s⁻¹"}
{"sequence record": "AUAAAAGCGCCAGAACUACAGAAAUGUAGUUGACGAGGAGGAGGUUUGCCGAAUUUUCGGCGGAUGCCUCCAAA [A48G U49C]", "value reported": "< 1e-05 s⁻¹"}
{"sequence record": "AUAAAAGCGCCAGAACUACAGAAAUGUAGUUGAUGAGGAGGAGGUUUAUCGCAUUUUCGGCGGUUGUCUCCAAA [C34U A52C A64U C67U]", "value reported": "< 1e-05 s⁻¹"}
